These entries and their values trace back to patent US9096548B2.

- TARGET OR SYSTEM: ENaC (Epithelial Sodium Channel) (Mus musculus, UniProt Q61180+Q9WU38+Q9WU39)
- Construct: Mouse kidney M−1 cells were cultivated in DMEM; endogenous in cells; host or cells: Mouse kidney M-1 cells, cultivated with dexamethasone on transwell filters
- Sequence (Q61180 whole entry): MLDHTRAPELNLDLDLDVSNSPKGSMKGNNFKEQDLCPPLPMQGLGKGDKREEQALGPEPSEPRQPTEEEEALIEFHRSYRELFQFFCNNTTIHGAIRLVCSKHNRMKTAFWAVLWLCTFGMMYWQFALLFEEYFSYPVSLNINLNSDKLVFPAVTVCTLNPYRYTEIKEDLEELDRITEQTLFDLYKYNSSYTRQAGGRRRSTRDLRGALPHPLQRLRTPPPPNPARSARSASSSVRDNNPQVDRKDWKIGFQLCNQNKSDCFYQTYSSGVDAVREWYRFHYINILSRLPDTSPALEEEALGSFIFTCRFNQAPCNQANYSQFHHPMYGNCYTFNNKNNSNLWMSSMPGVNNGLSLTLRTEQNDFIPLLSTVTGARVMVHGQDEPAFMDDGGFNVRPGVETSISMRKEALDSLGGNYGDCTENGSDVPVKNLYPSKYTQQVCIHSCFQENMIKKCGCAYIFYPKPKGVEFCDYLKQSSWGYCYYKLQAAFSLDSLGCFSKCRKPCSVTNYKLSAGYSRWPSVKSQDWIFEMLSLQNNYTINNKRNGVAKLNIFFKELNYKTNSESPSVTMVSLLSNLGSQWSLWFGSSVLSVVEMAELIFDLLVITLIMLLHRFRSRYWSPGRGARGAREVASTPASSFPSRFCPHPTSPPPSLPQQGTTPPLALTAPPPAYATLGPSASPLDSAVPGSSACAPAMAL
- Sequence (Q9WU38 whole entry): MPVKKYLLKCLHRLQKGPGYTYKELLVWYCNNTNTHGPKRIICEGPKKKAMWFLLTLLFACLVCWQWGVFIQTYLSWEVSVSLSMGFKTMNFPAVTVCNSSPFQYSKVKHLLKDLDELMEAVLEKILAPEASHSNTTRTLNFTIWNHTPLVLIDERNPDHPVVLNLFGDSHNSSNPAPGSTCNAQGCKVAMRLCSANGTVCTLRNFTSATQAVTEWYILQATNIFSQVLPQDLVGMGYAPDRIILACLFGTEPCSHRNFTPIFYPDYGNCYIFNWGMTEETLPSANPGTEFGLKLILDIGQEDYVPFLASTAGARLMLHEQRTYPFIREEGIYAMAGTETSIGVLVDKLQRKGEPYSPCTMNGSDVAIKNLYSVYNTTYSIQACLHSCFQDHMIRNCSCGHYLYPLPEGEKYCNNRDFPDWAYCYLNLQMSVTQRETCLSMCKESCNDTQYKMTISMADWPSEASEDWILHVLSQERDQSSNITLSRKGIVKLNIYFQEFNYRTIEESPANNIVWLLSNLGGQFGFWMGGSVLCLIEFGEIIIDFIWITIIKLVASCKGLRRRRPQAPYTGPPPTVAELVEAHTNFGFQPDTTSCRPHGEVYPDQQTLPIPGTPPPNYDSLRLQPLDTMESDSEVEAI
- Sequence (Q9WU39 whole entry): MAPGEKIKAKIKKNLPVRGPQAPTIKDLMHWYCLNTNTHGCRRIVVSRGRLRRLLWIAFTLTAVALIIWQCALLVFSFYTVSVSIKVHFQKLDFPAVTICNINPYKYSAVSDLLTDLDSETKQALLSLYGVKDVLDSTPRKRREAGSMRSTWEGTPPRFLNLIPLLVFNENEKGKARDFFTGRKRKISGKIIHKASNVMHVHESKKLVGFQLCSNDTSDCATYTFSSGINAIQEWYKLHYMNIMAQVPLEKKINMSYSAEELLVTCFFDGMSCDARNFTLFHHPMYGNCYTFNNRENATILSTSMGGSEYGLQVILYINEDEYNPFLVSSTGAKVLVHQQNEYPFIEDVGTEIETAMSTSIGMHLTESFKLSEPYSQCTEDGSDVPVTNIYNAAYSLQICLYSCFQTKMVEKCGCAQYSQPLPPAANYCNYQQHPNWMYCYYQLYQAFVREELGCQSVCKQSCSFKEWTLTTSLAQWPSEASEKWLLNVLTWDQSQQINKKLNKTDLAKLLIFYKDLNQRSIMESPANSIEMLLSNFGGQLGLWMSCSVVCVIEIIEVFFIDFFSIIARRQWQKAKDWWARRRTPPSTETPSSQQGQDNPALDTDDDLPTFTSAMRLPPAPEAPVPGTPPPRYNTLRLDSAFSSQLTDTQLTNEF
- ASSAY PROCEDURE: Ussing Chamber assay (short circuit current, amiloride sensitive I_SC)
- Type: cell-based
- ASSAY SETUP: Ussing chamber, mouse kidney M-1 cells, short circuit current, compound added to the apical solution; read-out: IC50
READOUT LABEL: IC50 (nM)

Value of measured IC50 for the entry Nc1nc(N)c(C(=O)N[C@H]2CCC[N+](CCCc3ccc(OCC(=O)NC4CCS(=O)(=O)C4)cc3)(CCCc3ccc(OCC(=O)NC4CCS(=O)(=O)C4)cc3)C2)nc1Cl (stereo partly drawn) : 35

Value of measured IC50 for the entry "Nc1nc(N)c(C(=O)N[C@H]2CCC[N+](CCCc3ccc(OCC(=O)N4CCC(O)CC4)cc3)(CCCc3ccc(OCC(=O)N4CCC(O)CC4)cc3)C2)nc1Cl" : 92

Value of measured IC50 for the entry "CN(C)CCNC(=O)COc1ccc(CCC[N+]2(CCCc3ccc(OCC(=O)NCCN(C)C)cc3)CCC[C@H](NC(=O)c3nc(Cl)c(N)nc3N)C2)cc1" : 45

a = COc1ccc(CCC[N+](C)(CCCc2ccc(OC)cc2)[C@@H]2C[C@H]2NC(=O)c2nc(Cl)c(N)nc2N)cc1
b = CP(C)(=O)CNC(=O)COc1ccc(CCC[N+]2(CCCc3ccc(OCC(=O)NCP(C)(C)=O)cc3)CCC[C@H](NC(=O)c3nc(Cl)c(N)nc3N)C2)cc1
Q: For a and b , which recorded IC50 is lower? Your answer should be the label attached to the chosen record.
Result: a
(a: 80 nM, b: 131 nM)

---

- TARGET OR SYSTEM: ENaC (Epithelial Sodium Channel) (Mus musculus, UniProt Q61180+Q9WU38+Q9WU39)
- Construct: Mouse kidney M−1 cells were cultivated in DMEM; endogenous in cells; host or cells: Mouse kidney M-1 cells, cultivated with dexamethasone on transwell filters
- ASSAY PROCEDURE: Ussing Chamber assay (short circuit current, amiloride sensitive I_SC)
- Format: cell-based
- ASSAY SETUP: Ussing chamber, mouse kidney M-1 cells, short circuit current, compound added to the apical solution; read-out: IC50
READOUT LABEL: IC50 (nM)

// compound COc1ccc(CCC[N+]2(CCc3ccccc3)CCCC(NC(=O)c3nc(Cl)c(N)nc3N)C2)cc1 (stereo not drawn) , assay ENaC (Epithelial Sodium Channel) (Mus musculus, UniProt Q61180+Q9WU38+Q9WU39), IC50 value: 60

1 = COc1cccc(CCC[N+]2(CCCc3cccc(OC)c3)CCCC(NC(=O)c3nc(Cl)c(N)nc3N)C2)c1 (stereo not drawn)
2 = CN(C)CCNC(=O)COc1ccc(CCC[N+]2(CCCc3ccc(OCC(=O)NCCN(C)C)cc3)CCCC(NC(=O)c3nc(Cl)c(N)nc3N)C2)cc1 (stereo not drawn)
3 = Nc1nc(N)c(C(=O)N[C@H]2CCC[N+](CCCc3ccc(OCC(=O)NCCCCO)cc3)(CCCc3ccc(OCC(=O)NCCCCO)cc3)C2)nc1Cl
Q: Could you please sort these 3 entries by IC50 from high to low? Answer by listing the labels in the requested order.
Result: 2, 1, 3
